# conditionNotes: 318.15 K; 101.33 kPa; Liquid; Alternating current cell with electrodes
propertyName: electrical conductivity

>>> recordedvalue("CCCCn1cc[n+](C)c1.F[B-](F)(F)F [1-butyl-3-methylimidazolium tetrafluoroborate]")
"0.821 S/m"
>>> recordedvalue("CCCCCCCC[n+]1ccn(C)c1.F[B-](F)(F)F [1-methyl-3-octylimidazolium tetrafluoroborate]")
"0.165 S/m"
>>> recordedvalue("CCn1cc[n+](C)c1.F[B-](F)(F)F [1-ethyl-3-methylimidazolium tetrafluoroborate]")
"2.77 S/m"
>>> recordedvalue("CCCCCCn1cc[n+](C)c1.F[B-](F)(F)F [1-hexyl-3-methylimidazolium tetrafluoroborate]")
"0.326 S/m"
